Test: probe aLefty1 binding on compound microarray – biochemical, small-molecule microarray, 635/667 nm fluorescence, primary screen (AID 1153);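 further: score merges spot fluorescence with signal-to-noise ratio from the scanned slide images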
Conditions: higher = more signal
# composite z-score >= 0.06 gives Condition met, anything below gives Condition not met

# example entries with known answers
compound	cat
CCCCC(O)C1C=CC2C(=O)N(c3ccccc3)C(=O)C2N1Nc1ccc([N+](=O)[O-])cc1 (configuration not stated)	Condition met
C=CCOC(=O)[C@H]1[C@@H]2C(=O)O[C@@H](c3ccccc3)[C@@H](c3ccccc3)N2[C@@H](c2ccc(OCCOC(=O)[C@@H]3C[C@@H]4C(=O)N[C@@H](CCCC[N+](C)(C)C)C(=O)N4[C@@H]3c3ccc(O)cc3)cc2)[C@]12C(=O)Nc1ccc(I)cc12	Condition met
COC(=O)[C@@]1(Cc2ccc(F)cc2)[C@H]2c3cc(C(=O)N(C)C)n(CCc4ccc(O)c(O)c4)c3C[C@H]2CN1C(=O)c1ccccc1	Condition met

Enquiry: Item C=C(COC)/C(=C/C[C@@H](OC(C)=O)c1ccccc1OCCO)c1cnc2ccccc2c1 with composite z-score of 0.06 or above?
Return: Condition met

Enquiry: Item CC(C)NC(=O)[C@@]1(C)c2ccccc2C(=O)N(Cc2ccccc2)[C@H]1c1ccc(CO)cc1 with composite z-score of 0.06 or above?
Return: Condition not met

Enquiry: Item CCCCN1CC=CC23O[C@@H]4/C=C\CCCOC(=O)C4[C@H]2C(=O)N(C(CO)C(C)C)[C@@H]3C1=O (some centres not stated) with composite z-score of 0.06 or above?
Return: Condition not met

====

Tested on: Sam68 (KHDRBS1)
Experiment: compounds binding KHDRBS1 protein – biochemical, small-molecule microarray, 635 nm fluorescence, primary screen (AID 1125);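 further: score merges 667 nm channel intensity with signal to noise over triplicate slides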
Settings: higher = more signal
measuredParameter: composite z-score
Write no unit; give the number alone.

> print(dat)
                                   compound  measuredparameter  measurement
1  COC(=O)[C@@]1(Cc2ccccc2)[C@H]2c3cc(C(=O)N4CCCC4)n(Cc4ccc(OC)c(OC)c4)c3C[C@H]2CN1C(=O)c1ccccc1  composite z-score         1.04
2  O=C1C[C@@](C(=O)NCc2ccccc2)(c2ccc([N+](=O)[O-])cc2)[C@@H](c2ccc(CO)cc2)N1C1CCCCC1  composite z-score         1.03
3  OCCCC1=CC(c2ccc(CN3CCCC3)cc2)N(Cc2cccc(OC(F)(F)F)c2)CC1 (centres undefined)  composite z-score      -0.0506

We now examine a further compound.
Enquiry: Item under review: COC(=O)c1cccc([C@H]2OC(=CC(=O)OC(C)C)C[C@@H](c3cccc(C(=O)OC)c3)O2)c1 . Reported composite z-score?
Return: 1.29

====

Catalogue of compounds with associated z-score
Test: plasmodial surface anion channel blockers, osmotic lysis – cell-based, P. falciparum Indochina, OD700, 1 h, primary screen (AID 1154)
Conditions: P. falciparum Indochina infected RBC osmotic lysis, higher = more signal, called active from +8 up or from −8 down
Write no unit; give the number alone.

A selection of reference data follows.
compound	measurement
CC1CC/C=C\[C@H]2OC34C=CCN(Cn5nnc6ccccc65)C(=O)[C@H]3N(CCCCCCO)C(=O)[C@@H]4C2C(=O)O1 (some centres undefined)	0.59
COc1cc(C(O)C2C=CC3C(=O)N(c4ccccc4)C(=O)C3N2Nc2ccccc2F)cc(OC)c1OC (centres undefined)	5.94
O=C1O[C@H](c2ccccc2)[C@H](c2ccccc2)N2[C@H]1[C@@H](C(=O)N1CCN(c3ncccn3)CC1)[C@]1(C(=O)Nc3ccc(C#CCCO)cc31)[C@H]2c1ccc(O)cc1	1.28
CC1CC/C=C\[C@H]2OC34C=CCN(c5ccc(Cl)cc5)C(=O)[C@H]3N(CCCCCCO)C(=O)[C@]4(C)C2C(=O)O1 (some centres undefined)	-0.108

Enquiry: Item under review: CN1C(=O)C2C(C1=O)C1C=C(c3ccc(CO)cc3)C2C(C2CC2)N1C (centres undefined) . Reported z-score?
Return: 0.773

Enquiry: Item under review: COCCOC(=O)N1C(=O)[C@@]2(c3cc(C#CCC(C(=O)OC)C(=O)OC)ccc31)[C@H](c1ccc(O)cc1)N1[C@H](c3ccccc3)[C@H](c3ccccc3)OC(=O)[C@H]1[C@@H]2C(=O)Nc1nc2ccccc2s1 . Reported z-score?
Return: 2.75

Enquiry: Item under review: CCCNC(=O)[C@@]1(Sc2ccc(C)cc2)CC(=O)N(Cc2ccccc2Cl)[C@@H]1c1ccc(CO)cc1I . Reported z-score?
Return: 5.36

Data provenance is PubChem BioAssay.
